assay target: Lysine-specific demethylase 4C (Homo sapiens) (UniProt Q9H3R0)
Sequence (Q9H3R0 2-372 limits assumed): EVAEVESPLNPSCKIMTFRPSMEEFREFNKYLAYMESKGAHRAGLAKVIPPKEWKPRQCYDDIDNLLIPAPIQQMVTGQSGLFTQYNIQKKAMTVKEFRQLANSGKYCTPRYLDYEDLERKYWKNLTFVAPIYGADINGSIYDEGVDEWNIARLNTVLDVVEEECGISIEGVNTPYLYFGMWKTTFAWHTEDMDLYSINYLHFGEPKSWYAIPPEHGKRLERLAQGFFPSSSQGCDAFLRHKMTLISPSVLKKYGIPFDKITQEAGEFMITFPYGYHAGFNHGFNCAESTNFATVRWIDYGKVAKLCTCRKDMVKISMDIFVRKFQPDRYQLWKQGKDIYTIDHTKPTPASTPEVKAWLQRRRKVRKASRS
assay explanation: KDM4C H3K9me3 demethylation inhibition – biochemical, single concentration HTS, primary screen (AID 720574)
study conditions: GST-KDM4C 2-372, H3K9me3 peptide, LANCE TR-FRET; at 12.5 µM; stronger effect = higher value
The whole screen tested about 96,000 compounds, of which about 140 (0.15%) were called active. The full list was thinned out, with actives kept by preference.
observation type: inhibition

1. O=C(c1ccncc1)N1C[C@@H]2[C@H](c3ccccc31)[C@H](CO)N2C(=O)c1ccncc1 = -0.987% (inactive)
2. C/C=C/c1ccc([C@@H]2[C@H](CO)N(CC3CCOCC3)C23CN(S(=O)(=O)CC)C3)cc1 = 0.162% (inactive)
3. O=C(C[C@@H]1C[C@H]2c3cc(NC(=O)Nc4ccccc4)ccc3O[C@H]2[C@@H](CO)O1)NC1CCCCC1 = -1.66% (inactive)

----------
assay target: Lysine-specific demethylase 4C (Homo sapiens)
assay explanation: KDM4C H3K9me3 demethylation inhibition – biochemical, single concentration HTS, primary screen (AID 720574)
study conditions: GST-KDM4C 2-372, H3K9me3 peptide, LANCE TR-FRET; at 12.5 µM; stronger effect = higher value
In all, about 96,000 compounds went through this assay and about 140 (0.15%) were called active. The sample holds actives, similar compounds and a random draw of the others, so the mix is not that of the screen.
observation type: inhibition (%)

1) CO[C@@H]1CN(C)C(=O)c2ccc(NC(=O)NC(C)C)cc2OC[C@@H](C)N(Cc2ccc(-c3ccccn3)cc2)C[C@H]1C = 0.434
2) CO[C@@H]1CN(C)C(=O)c2ccc(NC(=O)c3ccccc3F)cc2OC[C@@H](C)N(CC2CCOCC2)C[C@H]1C = 2.15
3) C[C@H](CO)N1C[C@H](C)[C@@H](CN(C)S(=O)(=O)c2ccccc2)OCCCC[C@H](C)Oc2ccc(NC(=O)NC3CCCCC3)cc2C1=O = 0.616
4) CN(C)C(=O)[C@@H]1[C@@H](CO)[C@@H]2Cn3c(ccc(C4=CCCC4)c3=O)[C@H]1N2Cc1ccccn1 = 1.36
5) CN(C)C(=O)[C@@H]1[C@@H](CO)[C@@H]2Cn3c(cccc3=O)[C@H]1N2C(=O)c1ccc(F)cc1 = -1.64
6) COc1ccc2c3c(n(C)c2c1)[C@H](CO)N(Cc1ccc(F)cc1)CC31CN(CC2CCOCC2)C1 = -0.66
7) CCCN1C[C@@H](C)[C@@H](OC)CN(C)C(=O)c2cc(NC(=O)c3ccccc3)ccc2OC[C@H]1C = -1.49

----------
assay target: Lysine-specific demethylase 4C (Homo sapiens) (UniProt Q9H3R0)
assay explanation: KDM4C H3K9me3 demethylation inhibition – biochemical, single concentration HTS, primary screen (AID 720574)
study conditions: GST-KDM4C 2-372, H3K9me3 peptide, LANCE TR-FRET; at 12.5 µM; stronger effect = higher value
Screen size: about 96,000 compounds; about 140 (0.15%) were called active. This is one part of a sample in which actives are shown more often than they occur.
observation type: inhibition (%)

1. COC(=O)C[C@H]1C[C@H]2c3cc(NC(=O)NC4CCCCC4)ccc3O[C@H]2[C@H](CO)O1 = 9.44
2. COc1ccc(-c2cnc3c(c2)C(=O)N([C@H](C)CO)C[C@@H](C)[C@H](CN(C)C(=O)Cc2ccncc2)O3)cc1 = -0.262
3. CCCC#Cc1ccc([C@@H]2[C@@H](CO)N3C(=O)CN(C(=O)Nc4ccc(F)cc4)C[C@@H]23)cc1 = -0.912
4. CC(=O)N1[C@H](CO)[C@@H](c2ccccc2)[C@@H]1CN(CC(C)C)C(=O)c1ccccn1 = 4.04
5. Cc1ccc(S(=O)(=O)N(C)C[C@@H]2OCCCC[C@@H](C)Oc3ccc(NC(=O)Nc4ccc(C(F)(F)F)cc4)cc3C(=O)N([C@@H](C)CO)C[C@@H]2C)cc1 = 1.16
6. O=C(C[C@@H]1CC[C@H]2[C@@H](COC[C@@H](O)CN2S(=O)(=O)c2cccc(F)c2)O1)NCCCN1CCOCC1 = -0.281
7. CC=Cc1ccc2n(c1=O)C[C@@H]1[C@@H](CO)[C@H](C(=O)N[C@H](C)c3ccccc3)N(C(=O)c3cnccn3)[C@H]21 (mixture of isomers) = 0.423
8. CS(=O)(=O)N1CC2(C1)[C@H](c1ccccc1)[C@H](CO)N2Cc1ccc(F)cc1 = 0.43
9. O=C(C1CCOCC1)N1C[C@H]2[C@@H](c3ccccc31)[C@@H](CO)N2Cc1ccccc1 = 2.96

Source listed as PubChem BioAssay AID720574.
